Assay: Chemical stability: hydrolysis half-life in buffer solution at various pH
Format: physicochemical
Details: bovine, pH 7.4, half-life of hydrolysis

compound	half-life
COCCCOc1ccnc(C[S+]([O-])c2nc3ccccc3n2S(=O)(=O)c2ccc(OCC(N)=O)c(OCC(N)=O)c2)c1C (stereo not shown)	~22.2 h

###

Test: Chemical stability: hydrolysis half-life in buffer solution at various pH
Assay type: physicochemical
Details: buffer, pH 8, half-life of hydrolysis
result type: half-life

compound	result type	result
COCCCOc1ccnc(C[S+]([O-])c2nc3ccccc3n2S(=O)(=O)c2ccc(OCC(N)=O)c(OCC(N)=O)c2)c1C (stereo not shown) [Example 77]	half-life	~10.7 h
